# merged literature set: IC50 with C-C chemokine receptor type 5 (Homo sapiens, UniProt P51681)
readout: IC50 (nM)

Study these solved cases before continuing.
# compound, IC50, nM
rows = [
    ("O=C1/C(=C\\c2cnc3ccccc3c2)SC(c2cccc(Cl)c2)N1CCCN1CCCCC1 (stereo not shown)", 4120),
    ("C[C@H]1CN(CC[C@]2(O)CC[C@@H](NC(=O)c3cc4c(OCc5coc6ccc(Cl)cc56)cccc4[nH]3)CC2)CC[C@@H]1O", 0.5),
    ("C[C@H]1CN(CC[C@]2(O)CC[C@@H](NC(=O)c3cc4c(OCc5coc6cc(OCC7CC7)ccc56)cccc4[nH]3)CC2)CC[C@@H]1O", 4.8),
]

I: CCCCC1CN(CC2CCN(C(C)=O)CC2)C(=O)CC12CCN(C1(C)CCN(C(=O)c3c(C)ncnc3C)CC1)CC2 (stereo not shown)
II: O=C1/C(=C\c2cccc(F)c2)SC(c2cccc(Cl)c2)N1CCCN1CCOCC1 (stereo not shown)
Request: Hi! Which is lower in terms of IC50, the first one I or the second one II ? Write down the label attached to your selection.
Result: I
